- study_system: Androgen Receptor (AR) in the LNCaP prostate carcinoma cell line (Homo sapiens, UniProt P10275, T878A)
- Construct: cell based immuno-fluorescence assay using the LNCaP prostate epithelial cell line; host or cells: LNCaP clone FGC
- protocol_text: LNCaP Androgen Receptor Down-Regulation Cell Assay (immunofluorescence end point)
- Assay type: cell-based
- test_context: LNCaP cells, compound incubation 20-22 hours, concentration giving 50% reduction of the AR signal
outcome_measure: IC50 (µM)

1) CCCCN(C)C(=O)COc1ccc(C2CCN(C3=Nn4c(nnc4C(F)(F)F)CC3)CC2)cc1 ... 0.46
2) FC(F)(F)c1ccn(CCOc2ccc(N3CCN(C4=Nn5c(nnc5C(F)(F)F)CC4)CC3)cc2)n1 ... 1.5
3) FC(F)(F)c1cccc(CN2CCN(C3=Nn4c(nnc4C(F)(F)F)CC3)CC2)c1 ... 2.7

[a] C[C@H](COc1ccc(C2CCN(C3=Nn4c(nnc4C(F)(F)F)CC3)CC2)cc1)N1CCN(C)C(=O)C1 (single isomer, unassigned)
[b] CS(=O)(=O)N1CCN(CCOc2ccc(C3CCN(C4=Nn5c(nnc5C(F)(F)F)CC4)CC3)cc2)CC1
[c] CC(=O)N1CCN([C@@H](C)COc2ccc(C3CCN(C4=Nn5c(nnc5C(F)(F)F)CC4)CC3)cc2)CC1 (single isomer, unassigned)
[d] CN(C)C(=O)COc1ccc(C2CCN(C3=Nn4c(nnc4C(F)(F)F)CC3)CC2)cc1
Ask: Write the entries in order, lowest recorded IC50 first. Form entry: labels listed in requested order.
Reply: c, a, b, d
(c: 0.14 µM, a: 0.38 µM, b: 1.5 µM, d: 4.1 µM)

---

- study_system: Androgen Receptor (AR) in the LNCaP prostate carcinoma cell line (Homo sapiens, UniProt P10275, T878A)
- Construct: cell based immuno-fluorescence assay using the LNCaP prostate epithelial cell line; host or cells: LNCaP clone FGC
- protocol_text: LNCaP Androgen Receptor Down-Regulation Cell Assay (immunofluorescence end point)
- Format: cell-based
- test_context: LNCaP cells, compound incubation 20-22 hours, concentration giving 50% reduction of the AR signal
outcome_measure: IC50 (µM)

1. CS(=O)(=O)N1CCN(CCCOc2ccc(N3CCN(C4=Nn5c(nnc5C(F)(F)F)CC4)CC3)cc2)CC1 ... 18
2. CC(=O)N1CCN(CCCOc2ccc(N3CCN(C4=Nn5c(nnc5C(F)(F)F)CC4)CC3)cc2)CC1 ... 10
3. COCCN(C)C(=O)COc1ccc(C2CCN(C3=Nn4c(nnc4C(F)(F)F)CC3)CC2)cc1 ... 2.9
4. Cn1nccc1CCOc1ccc(C2CCN(C3=Nn4c(nnc4C(F)(F)F)CC3)CC2)cc1 ... 0.94
5. C[C@@H]1C(=O)N(C)CCN1CCOc1ccc(C2CCN(C3=Nn4c(nnc4C(F)(F)F)CC3)CC2)cc1 ... 0.045
6. CC(=O)N1CCN(CCOc2ccc(C3(O)CCN(C4=Nn5c(nnc5C(F)(F)F)CC4)CC3)cc2)CC1 ... 12
7. FC(F)(F)c1nnc2n1N=C(N1CC=C(c3c[nH]c4ncccc34)CC1)CC2 ... 4.4
8. Fc1ccc(CN2CCN(C3=Nn4c(nnc4C(F)(F)F)CC3)CC2)cc1 ... 6

[A] FC(F)(F)c1nnc2n1N=C(N1CCN(Cc3cccc(Cl)c3)CC1)CC2
[B] FC(F)(F)c1nnc2n1N=C(N1CCC(c3c[nH]c4ccccc34)CC1)CC2
Ask: I'm curious whether A or B has the smaller IC50 number. Which is it? Your answer should be the label attached to the chosen record.
Reply: B

---

- study_system: Androgen Receptor (AR) in the LNCaP prostate carcinoma cell line (Homo sapiens, UniProt P10275, T878A)
- Construct: cell based immuno-fluorescence assay using the LNCaP prostate epithelial cell line; host or cells: LNCaP clone FGC
- Sequence (P10275 1-920 T878A): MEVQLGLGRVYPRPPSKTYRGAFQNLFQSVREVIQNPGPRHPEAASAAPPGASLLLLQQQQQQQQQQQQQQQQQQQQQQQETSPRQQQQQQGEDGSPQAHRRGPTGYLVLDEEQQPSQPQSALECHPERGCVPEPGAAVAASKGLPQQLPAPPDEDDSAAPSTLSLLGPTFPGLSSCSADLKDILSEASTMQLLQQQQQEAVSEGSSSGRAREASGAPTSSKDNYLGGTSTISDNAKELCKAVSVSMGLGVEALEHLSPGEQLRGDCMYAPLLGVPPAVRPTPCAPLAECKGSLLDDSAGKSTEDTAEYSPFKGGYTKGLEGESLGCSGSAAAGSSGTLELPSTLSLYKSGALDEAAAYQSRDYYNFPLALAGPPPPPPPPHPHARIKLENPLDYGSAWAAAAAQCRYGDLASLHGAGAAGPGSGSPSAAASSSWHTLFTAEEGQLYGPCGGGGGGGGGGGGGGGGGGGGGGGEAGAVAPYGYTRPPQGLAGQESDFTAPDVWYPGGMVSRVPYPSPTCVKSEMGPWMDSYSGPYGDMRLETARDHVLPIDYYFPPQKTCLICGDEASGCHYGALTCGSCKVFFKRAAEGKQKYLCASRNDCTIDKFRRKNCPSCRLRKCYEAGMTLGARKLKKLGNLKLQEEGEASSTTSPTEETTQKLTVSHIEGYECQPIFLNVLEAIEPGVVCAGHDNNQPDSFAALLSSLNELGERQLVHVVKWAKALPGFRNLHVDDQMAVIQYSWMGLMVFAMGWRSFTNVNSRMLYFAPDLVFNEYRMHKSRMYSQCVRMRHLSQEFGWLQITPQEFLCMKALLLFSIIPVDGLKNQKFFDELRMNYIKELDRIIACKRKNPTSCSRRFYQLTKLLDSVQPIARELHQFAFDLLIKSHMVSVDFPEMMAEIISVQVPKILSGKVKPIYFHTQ
- protocol_text: LNCaP Androgen Receptor Down-Regulation Cell Assay (immunofluorescence end point)
- Assay type: cell-based
- test_context: LNCaP cells, compound incubation 20-22 hours, concentration giving 50% reduction of the AR signal
outcome_measure: IC50 (µM)

1. Fc1cccc(CN2CCN(C3=Nn4c(nnc4C(F)(F)F)CC3)CC2)c1 [Example 6] ... 4

[a] Cn1nccc1CCOc1ccc(N2CCN(C3=Nn4c(nnc4C(F)(F)F)CC3)CC2)cc1 [Example 16]
[b] Cc1cc(C)n(CCOc2ccc(C3CCN(C4=Nn5c(nnc5C(F)(F)F)CC4)CC3)cc2)n1 [Example 43]
[c] CCc1nccn1CCOc1ccc(N2CCN(C3=Nn4c(nnc4C(F)(F)F)CC3)CC2)cc1 [Example 39]
Ask: Write the entries in order, lowest recorded IC50 first. Form entry: labels listed in requested order.
Reply: b, a, c
(b: 1 µM, a: 3.2 µM, c: 4.8 µM)

---

- study_system: Androgen Receptor (AR) in the LNCaP prostate carcinoma cell line (Homo sapiens, UniProt P10275, T878A)
- Construct: cell based immuno-fluorescence assay using the LNCaP prostate epithelial cell line; host or cells: LNCaP clone FGC
- protocol_text: LNCaP Androgen Receptor Down-Regulation Cell Assay (immunofluorescence end point)
- Assay type: cell-based
- test_context: LNCaP cells, compound incubation 20-22 hours, concentration giving 50% reduction of the AR signal
outcome_measure: IC50 (µM)

1) CCN1CCN(CCOc2ccc(C3CCN(C4=Nn5c(nnc5C(F)(F)F)CC4)CC3)cc2)CC1=O ... 1.5

[A] Cn1nccc1CCOc1ccc(C2(O)CCN(C3=Nn4c(nnc4C(F)(F)F)CC3)CC2)cc1
[B] CN(CCO)C(=O)CCCOc1ccc(C2CCN(C3=Nn4c(nnc4C(F)(F)F)CC3)CC2)cc1
Ask: I'm curious whether A or B has the smaller IC50 number. Which is it? Your answer should be the label attached to the chosen record.
Reply: B
(B: 2.5 µM, A: 4.5 µM)

---

- study_system: Androgen Receptor (AR) in the LNCaP prostate carcinoma cell line (Homo sapiens, UniProt P10275, T878A)
- Construct: cell based immuno-fluorescence assay using the LNCaP prostate epithelial cell line; host or cells: LNCaP clone FGC
- protocol_text: LNCaP Androgen Receptor Down-Regulation Cell Assay (immunofluorescence end point)
- Format: cell-based
- test_context: LNCaP cells, compound incubation 20-22 hours, concentration giving 50% reduction of the AR signal
outcome_measure: IC50 (µM)

[a] Fc1ccc(C(F)F)c(CN2CCN(C3=Nn4c(nnc4C(F)(F)F)CC3)CC2)c1
[b] CC(=O)N1CCCN(CCOc2ccc(C3CCN(C4=Nn5c(nnc5C(F)(F)F)CC4)CC3)cc2)CC1
[c] CCCCC(=O)N1CCN(CCCOc2ccc(N3CCN(C4=Nn5c(nnc5C(F)(F)F)CC4)CC3)cc2)CC1
[d] CC(=O)N1CCN([C@H](C)COc2ccc(C3CCN(C4=Nn5c(nnc5C(F)(F)F)CC4)CC3)cc2)CC1 (single isomer, unassigned)
Ask: Please produce an ascending ranking of these compounds based on IC50. Form entry: labels listed in requested order.
Reply: d, b, a, c
(d: 0.18 µM, b: 0.7 µM, a: 1 µM, c: 6.7 µM)
